System: RARg:RXRa (NR concentration 270 nM, RXRa partner concentration 90 nM)
Assay: PBM binding z-score (relative to random genomic background probes); higher = stronger binding; sequences stand for … in GC…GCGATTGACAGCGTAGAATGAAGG

{"Sequence Entry": "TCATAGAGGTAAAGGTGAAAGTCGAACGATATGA", "Subject Of Test": "RARg:RXRa (NR concentration 270 nM, RXRa partner concentration 90 nM)", "PBM binding z-score": 1.9}
{"Sequence Entry": "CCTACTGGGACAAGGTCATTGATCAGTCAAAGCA", "Subject Of Test": "RARg:RXRa (NR concentration 270 nM, RXRa partner concentration 90 nM)", "PBM binding z-score": 4}
{"Sequence Entry": "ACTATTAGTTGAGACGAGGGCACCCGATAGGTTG", "Subject Of Test": "RARg:RXRa (NR concentration 270 nM, RXRa partner concentration 90 nM)", "PBM binding z-score": 0.598}
{"Sequence Entry": "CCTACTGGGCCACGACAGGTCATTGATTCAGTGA", "Subject Of Test": "RARg:RXRa (NR concentration 270 nM, RXRa partner concentration 90 nM)", "PBM binding z-score": 1.95}
{"Sequence Entry": "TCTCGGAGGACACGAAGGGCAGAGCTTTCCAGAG", "Subject Of Test": "RARg:RXRa (NR concentration 270 nM, RXRa partner concentration 90 nM)", "PBM binding z-score": 0.796}
{"Sequence Entry": "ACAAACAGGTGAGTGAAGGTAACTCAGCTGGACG", "Subject Of Test": "RARg:RXRa (NR concentration 270 nM, RXRa partner concentration 90 nM)", "PBM binding z-score": 0.131}
{"Sequence Entry": "CAAACTAGGCCACCGGAAGGTCAAAGTCCGCATG", "Subject Of Test": "RARg:RXRa (NR concentration 270 nM, RXRa partner concentration 90 nM)", "PBM binding z-score": 4.82}
{"Sequence Entry": "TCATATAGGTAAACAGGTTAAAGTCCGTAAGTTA", "Subject Of Test": "RARg:RXRa (NR concentration 270 nM, RXRa partner concentration 90 nM)", "PBM binding z-score": 1.04}
{"Sequence Entry": "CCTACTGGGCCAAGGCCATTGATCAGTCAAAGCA", "Subject Of Test": "RARg:RXRa (NR concentration 270 nM, RXRa partner concentration 90 nM)", "PBM binding z-score": -0.179}
{"Sequence Entry": "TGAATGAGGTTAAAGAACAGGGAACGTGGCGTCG", "Subject Of Test": "RARg:RXRa (NR concentration 270 nM, RXRa partner concentration 90 nM)", "PBM binding z-score": 1.86}
{"Sequence Entry": "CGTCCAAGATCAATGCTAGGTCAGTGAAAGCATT", "Subject Of Test": "RARg:RXRa (NR concentration 270 nM, RXRa partner concentration 90 nM)", "PBM binding z-score": 1.93}
{"Sequence Entry": "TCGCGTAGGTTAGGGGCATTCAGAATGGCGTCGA", "Subject Of Test": "RARg:RXRa (NR concentration 270 nM, RXRa partner concentration 90 nM)", "PBM binding z-score": 0.412}
{"Sequence Entry": "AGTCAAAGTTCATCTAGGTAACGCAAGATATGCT", "Subject Of Test": "RARg:RXRa (NR concentration 270 nM, RXRa partner concentration 90 nM)", "PBM binding z-score": 5.4}
{"Sequence Entry": "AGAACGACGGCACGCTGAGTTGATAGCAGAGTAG", "Subject Of Test": "RARg:RXRa (NR concentration 270 nM, RXRa partner concentration 90 nM)", "PBM binding z-score": -0.171}
{"Sequence Entry": "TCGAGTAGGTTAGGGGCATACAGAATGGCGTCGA", "Subject Of Test": "RARg:RXRa (NR concentration 270 nM, RXRa partner concentration 90 nM)", "PBM binding z-score": 0.546}
